molecular target: Recombinant ROCK1 (amino acids 1-477) (Homo sapiens); construct: Recombinant ROCK1 (amino acids 1-477); by word order, ROCK1 from Carna Biosciences; experiment: ROCK inhibition assay, LANCE Ultra TR-FRET kinase assay (ROCK1); conditions: 1 μM ATP, 50 nM ULight-CREBtide substrate
Sequence (Q13464 1-477): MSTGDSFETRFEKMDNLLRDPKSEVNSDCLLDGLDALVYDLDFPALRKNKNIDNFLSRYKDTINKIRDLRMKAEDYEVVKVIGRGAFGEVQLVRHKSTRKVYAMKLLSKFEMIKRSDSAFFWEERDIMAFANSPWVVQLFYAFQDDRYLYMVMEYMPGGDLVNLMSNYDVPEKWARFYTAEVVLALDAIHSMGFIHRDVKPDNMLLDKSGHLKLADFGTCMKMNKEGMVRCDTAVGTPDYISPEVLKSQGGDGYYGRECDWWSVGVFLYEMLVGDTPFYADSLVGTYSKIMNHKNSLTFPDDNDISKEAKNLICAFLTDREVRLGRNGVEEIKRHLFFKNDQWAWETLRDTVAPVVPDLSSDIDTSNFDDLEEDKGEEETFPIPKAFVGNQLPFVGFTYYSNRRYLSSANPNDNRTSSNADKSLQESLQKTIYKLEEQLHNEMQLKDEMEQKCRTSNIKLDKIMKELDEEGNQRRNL
measure: IC50

query: API: value(readout= IC50, system= Recombinant ROCK1 (amino acids 1-477) (Homo sapiens), query= CNC(=O)c1cccc([C@@H](C)n2cnc3cc(-c4ccnn4C)ccc3c2=O)c1 [Compound 476] )
result: 11 to 100 nM

query: API: value(readout=IC50, system=Recombinant ROCK1 (amino acids 1-477) (Homo sapiens)) for record Cc1nocc1-c1ccc2c(=O)n(Cc3cc(F)cc(C(=O)NC4CCOCC4)c3)ccc2c1 [Compound 148]
result: 101 to 500 nM

query: Request - read-out IC50 | tested on Recombinant ROCK1 (amino acids 1-477) (Homo sapiens) | molecule COc1cccc([C@@H](CO)N2CNc3cc(-c4cnoc4C)ccc3C2=O)c1 [Compound 529]
result: > 501 nM

query: API: value(readout=IC50, system=Recombinant ROCK1 (amino acids 1-477) (Homo sapiens)) for record O=C(CCc1ccccn1)Nc1cccc(Cn2ccc3cc(-c4c[nH]nc4C(F)(F)F)ccc3c2=O)c1 [Compound 340]
result: 11 to 100 nM

query: Enter reported IC50 observed with Recombinant ROCK1 (amino acids 1-477) (Homo sapiens) for Cc1nocc1-c1ccc2c(=O)n(Cc3cccc(C(=O)NCC(F)(F)F)c3)cnc2c1 [Compound 421]
result: 11 to 100 nM

query: Item: CN1CCC(CNC(=O)c2cc(F)cc(Cn3ccc4cc(-c5c[nH]nc5C(F)F)ccc4c3=O)c2)CC1 [Compound 62] Test system: Recombinant ROCK1 (amino acids 1-477) (Homo sapiens) Read-out: IC50 Value: ?
result: < 10 nM

query: Recombinant ROCK1 (amino acids 1-477) (Homo sapiens) / IC50 / O=C(NCC1CCNCC1)c1cccc(Cn2cnc3cc(-c4cn[nH]c4C(F)(F)F)ccc3c2=O)c1 [Compound 381] : value?
result: < 10 nM

query: Recall the recorded IC50 for CC(=O)Nc1cc(F)cc(Cn2ccc3cc(-c4ccnc(N)c4)ccc3c2=O)c1 [Compound 353] with Recombinant ROCK1 (amino acids 1-477) (Homo sapiens) and state it.
result: > 501 nM
